Test Name: Cytotoxicity against mouse RAW264.7 cells assessed as reduction in cell viability at 25 ug/ml incubated for 48 hrs by MTT assay
Type: cell-based
Run Parameters: at 25 µg/mL, read-out: INH
# cytotoxicity at 48 h, 25 ug/ml >= 20% gives 1, anything below gives -1

Compound Structure: Cc1ccc(-n2cc(COc3ccc([N+](=O)[O-])cc3/C=N/NC(=O)c3ccncc3)nn2)c(C)c1
Group Label: -1
//
Compound Structure: Cc1ccccc1-n1cc(COc2ccc([N+](=O)[O-])cc2/C=N/NC(=O)c2ccncc2)nn1
Group Label: 1
//
Compound Structure: CCc1ccc(-n2cc(COc3ccc([N+](=O)[O-])cc3/C=N/NC(=O)c3ccncc3)nn2)cc1
Group Label: 1
//
Compound Structure: O=C(N/N=C/c1cc([N+](=O)[O-])ccc1OCc1cn(-c2cccc([N+](=O)[O-])c2)nn1)c1ccncc1
Group Label: 1
//
Compound Structure: Cc1ccc([N+](=O)[O-])cc1-n1cc(COc2ccc([N+](=O)[O-])cc2/C=N/NC(=O)c2ccncc2)nn1
Group Label: 1
//
Compound Structure: Cc1cccc(-n2cc(COc3ccc([N+](=O)[O-])cc3/C=N/NC(=O)c3ccncc3)nn2)c1
Group Label: 1
//
Compound Structure: O=C(N/N=C/c1cc([N+](=O)[O-])ccc1OCc1cn(-c2ccc(Br)cc2)nn1)c1ccncc1
Group Label: -1
//
Compound Structure: O=C(N/N=C/c1cc([N+](=O)[O-])ccc1OCc1cn(-c2ccccc2Cl)nn1)c1ccncc1
Group Label: 1
